target: MMP-9 (Homo sapiens); construct: made in house; host or cells: MMP-9-transfected HT1080 cells (spent media); assay: In vitro MMP inhibition, Ki determination (fluorogenic substrate II); assay type: biochemical; settings: value not in parenthesis
Sequence (P14780 107-707 limits assumed): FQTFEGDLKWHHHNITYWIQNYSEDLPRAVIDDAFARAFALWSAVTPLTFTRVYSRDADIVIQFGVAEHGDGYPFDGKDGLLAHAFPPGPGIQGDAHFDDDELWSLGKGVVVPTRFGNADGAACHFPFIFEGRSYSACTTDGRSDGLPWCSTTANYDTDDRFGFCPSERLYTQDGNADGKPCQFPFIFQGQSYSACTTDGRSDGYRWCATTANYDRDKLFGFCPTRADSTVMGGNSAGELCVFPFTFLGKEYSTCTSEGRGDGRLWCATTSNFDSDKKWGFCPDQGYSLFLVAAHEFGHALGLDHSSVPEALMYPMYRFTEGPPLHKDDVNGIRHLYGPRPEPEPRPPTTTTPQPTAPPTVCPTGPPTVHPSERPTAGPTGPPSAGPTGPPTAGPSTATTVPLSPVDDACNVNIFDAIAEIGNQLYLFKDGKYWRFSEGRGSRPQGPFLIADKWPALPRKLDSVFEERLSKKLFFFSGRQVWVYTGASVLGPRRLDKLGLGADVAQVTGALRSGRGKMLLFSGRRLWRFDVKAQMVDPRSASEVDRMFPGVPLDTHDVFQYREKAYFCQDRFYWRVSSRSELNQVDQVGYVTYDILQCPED
pKi: −log10 of the molar value.
MEASURED QUANTITY: pKi

Example entries begin here.
| COMPOUND | TARGET UNDER TEST | pKi |
| --- | --- | --- |
| CCCCOc1ccc(N2CCN(S(=O)(=O)C3(C(=O)NO)CCOCC3)CC2)cc1 | MMP-9 (Homo sapiens) | 8.93 |
| CCCCc1ccc(N2CCN(S(=O)(=O)C3(C(=O)NO)CCN(c4ncccn4)CC3)CC2)nc1 | MMP-9 (Homo sapiens) | 9.80 |

I. CCCCOc1ccc(N2CCN(S(=O)(=O)C3(C(=O)NO)CCN(C(=O)c4cccs4)CC3)CC2)cc1
II. COc1ccc(N2CCN(S(=O)(=O)C3(C(=O)NO)CCOCC3)CC2)nc1 [Example 108]
III. COc1ccc(-c2ccc(N3CCN(S(=O)(=O)C4(C(=O)NO)CCOCC4)CC3)nc2)cc1
IV. CCCCc1ccc(N2CCN(S(=O)(=O)C3(C(=O)NO)CCOCC3)CC2)nc1
Ask: Rank the 4 compounds: largest pKi first, smallest last. // format: requested-order list of labels
Result: IV, I, III, II

---

target: MMP-13 (Homo sapiens, UniProt P45452); construct: made in house; host or cells: baculovirus / insect cells; experiment: In vitro MMP inhibition, Ki determination (fluorogenic substrate II); assay type: biochemical; conditions: value not in parenthesis; read-out: MMP-13 Ki
MEASURED QUANTITY: Ki (nM)

Example entries begin here.
| COMPOUND | TARGET UNDER TEST | REPORTED RESULT |
| --- | --- | --- |
| O=C(NO)C1(S(=O)(=O)N2CCN(c3ccc(SC(F)(F)F)cc3)CC2)CCN(Cc2ccccc2)CC1 [Example 152] | MMP-13 (Homo sapiens, UniProt P45452) | 5.74 |
| O=C(NO)C1(S(=O)(=O)N2CCN(c3ccc(OCCN4CCCC4)cc3)CC2)CCOCC1 [Example 162] | MMP-13 (Homo sapiens, UniProt P45452) | 7.71 |
| COCCN1CCC(C(=O)NO)(S(=O)(=O)N2CCN(c3ccccc3)CC2)CC1 [Example 195] | MMP-13 (Homo sapiens, UniProt P45452) | 8.07 |
| CCCCCc1ccc(N2CCN(S(=O)(=O)C3(C(=O)NO)CCN(c4ccc(C)cc4)CC3)CC2)cc1 [Example 147] | MMP-13 (Homo sapiens, UniProt P45452) | 7.35 |

1. CCCCOc1ccc(N2CCN(S(=O)(=O)C3(C(=O)NO)CCN(C(=O)c4cc5ccccc5s4)CC3)CC2)cc1 [Example 143]
2. CCCC(C)Cc1ccc(N2CCN(S(=O)(=O)C3(C(=O)NO)CCN(CCOC)CC3)CC2)cc1 (centres unmarked) [Example 189]
3. O=C(NO)C1(S(=O)(=O)N2CCN(c3ccc(OCc4ccccc4)cn3)CC2)CCOCC1 [Example 74]
4. CCCCc1nnc(N2CCN(S(=O)(=O)C3(C(=O)NO)CCOCC3)CC2)s1 [Example 214]
Ask: Rank the 4 compounds: largest Ki first, smallest last. // format: requested-order list of labels
Result: 4, 1, 2, 3
